Experiment: Cytotoxicity in tissue culture testing (HeLa monolayers)
Type: cell-based
Settings: human; HeLa cells; GI = growth inhibition; read-out: Cytotoxicity: concentration at which the compound inhibited the growth of the tissue culture (GI)
RESULT TYPE: MCC (µg/mL)
Response body: numeric value in µg/mL, unit text excluded.

Kindly note the recorded MCC for O=C(c1ccccc1)c1ccc(Oc2ccc(S(=O)(=O)Cc3ccccc3)cn2)cc1 , which is 50

* * *

Test: Cytotoxicity in tissue culture testing (HeLa monolayers)
Assay type: cell-based
Settings: human; HeLa cells; observed at 48 and 72 hours post-treatment; read-out: Cytotoxicity: concentration of the compound found to be toxic to the cell
RESULT TYPE: MCC

Look over these answered cases.
CC(=O)c1ccc(Oc2ccc(S(=O)(=O)C(C)C)cn2)cc1; ≥ 50 µg/mL
CCS(=O)(=O)c1ccc(Oc2cc(Cl)c(Cl)cc2Cl)nc1; > 50 µg/mL
CSc1ccc(Oc2ccc(S(C)(=O)=O)cn2)cc1; > 50 µg/mL

Please fill in: MCC reported for CCS(=O)(=O)c1ccc(Oc2ccc(Cl)cc2)nc1 = ≥ 50 µg/mL

Notebook: CCS(=O)(=O)c1ccc(Oc2ccc(Cl)c(Cl)c2)nc1 , MCC read as > 50 µg/mL

Entry CC(C)(C)c1ccc(Oc2ccc(S(C)(=O)=O)cn2)cc1 , MCC reported as > 100 µg/mL
